- Test system: MT4
- Method: Ratio of CD50 to ID50 was determined
- Assay type: functional, Homo sapiens
Hi! Just check whether IS is below 2000. Below gives 1.0, equal or above gives 0.0.

Exam item: Determine if CCOC(=O)CP(=O)(OCC1OC(n2cc(C)c(=O)[nH]c2=O)CC1N=[N+]=[N-])OC1CCCCC1 (configuration not stated) shows IS strictly lower than 2000.
Marked response: 1.0

Exam item: Determine if CCOC(=O)P(=O)(OCC)OCC1OC(n2cc(C)c(=O)[nH]c2=O)CC1N=[N+]=[N-] (configuration not stated) shows IS strictly lower than 2000.
Marked response: 0.0

Exam item: Determine if CCOP(=O)(CC(N)=O)OCC1C=CC(n2cc(C)c(=O)[nH]c2=O)O1 (configuration not stated) shows IS strictly lower than 2000.
Marked response: 1.0

Exam item: Determine if CCOC(=O)P(=O)(OCC)OCC1C=CC(n2cc(C)c(=O)[nH]c2=O)O1 (configuration not stated) shows IS strictly lower than 2000.
Marked response: 1.0

Exam item: Determine if CCOP(=O)(CC(N)=O)OCC1OC(n2cc(C)c(=O)[nH]c2=O)CC1N=[N+]=[N-] (configuration not stated) shows IS strictly lower than 2000.
Marked response: 1.0

Exam item: Determine if CCOC(=O)CP(=O)(OCC)OCC1C=CC(n2cc(C)c(=O)[nH]c2=O)O1 (configuration not stated) shows IS strictly lower than 2000.
Marked response: 1.0

Exam item: Determine if CCOP(=O)(OCC1OC(n2cc(C)c(=O)[nH]c2=O)CC1N=[N+]=[N-])C(=O)NCCc1ccccc1 (configuration not stated) shows IS strictly lower than 2000.
Marked response: 0.0

====

- Method: Half life for hydrolysis of compound in phosphate buffer of pH 7.2 at 20 degree C
- Type: ADME
Readout Type: half-life

Exam item: Entry under review: CCOC(=O)CP(=O)(OCC1OC(n2cc(C)c(=O)[nH]c2=O)CC1N=[N+]=[N-])OC1CCCCC1 (centres undefined) . Reported half-life?
Marked response: > 8 h

Exam item: Entry under review: CCOC(=O)P(=O)(OCC)OCC1OC(n2cc(C)c(=O)[nH]c2=O)CC1N=[N+]=[N-] (centres undefined) . Reported half-life?
Marked response: 0.167 h

Exam item: Entry under review: CCOC(=O)P(=O)(OCC)OCC1C=CC(n2cc(C)c(=O)[nH]c2=O)O1 (centres undefined) . Reported half-life?
Marked response: 0.5 h

Exam item: Entry under review: CCOP(=O)(OCC1OC(n2cc(C)c(=O)[nH]c2=O)CC1N=[N+]=[N-])C(=O)NCCc1ccccc1 (centres undefined) . Reported half-life?
Marked response: 10 h

Exam item: Entry under review: CCOP(=O)(OCC1C=CC(n2cc(C)c(=O)[nH]c2=O)O1)C(=O)NCCc1ccccc1 (centres undefined) . Reported half-life?
Marked response: > 20 h

Exam item: Entry under review: CCOP(=O)(OCC1C=CC(n2cc(C)c(=O)[nH]c2=O)O1)C(N)=O (centres undefined) . Reported half-life?
Marked response: 7 h

Exam item: Entry under review: CCOP(=O)(OCC1C=CC(n2cc(C)c(=O)[nH]c2=O)O1)C(=O)NC (centres undefined) . Reported half-life?
Marked response: 15 h

Exam item: Entry under review: CCOC(=O)CP(=O)(OCC)OCC1C=CC(n2cc(C)c(=O)[nH]c2=O)O1 (centres undefined) . Reported half-life?
Marked response: > 8 h

Exam item: Entry under review: CCOP(=O)(OCC1OC(n2cc(C)c(=O)[nH]c2=O)CC1N=[N+]=[N-])C(N)=O (centres undefined) . Reported half-life?
Marked response: 2.5 h
